# credit: the supplement of paper PMC10567573

B1: PRIM1 (parent)
chain: CCSSADICPKCWTLMTMAIRIIDR

Variants of: B1
Test Protocol: protein stability index of a GFP-peptide fusion (GPS, HEK-293T) (PSI 1-6); higher = more stable;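 also: lentivirally expressed fusions sorted by FACS into six bins by GFP to DsRed ratio, PSI derived from sequencing read proportions per bin multiplied by bin number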
Run Parameters: c terminus: a fixed tail appended
Kindly return Criterion met if reported protein stability index is no lower than 2; return Criterion not met if it is lower.

Mutation Label: S4A
Answer Label: Criterion not met
//
Mutation Label: A18I
Answer Label: Criterion not met
//
Mutation Label: R20L
Answer Label: Criterion not met
//
Mutation Label: S4W
Answer Label: Criterion not met
//
Mutation Label: P9W
Answer Label: Criterion not met
//
Mutation Label: C1Q
Answer Label: Criterion not met
//
Mutation Label: S4E
Answer Label: Criterion met
//
Mutation Label: S3T
Answer Label: Criterion not met
//
Mutation Label: A18D
Answer Label: Criterion met
//
Mutation Label: D6I
Answer Label: Criterion not met
//
Mutation Label: W12V
Answer Label: Criterion not met
//
Mutation Label: M17P
Answer Label: Criterion met
//
Mutation Label: R24G
Answer Label: Criterion not met
//
Mutation Label: I19F
Answer Label: Criterion not met
//
Mutation Label: R24F
Answer Label: Criterion not met
//
Mutation Label: T16K
Answer Label: Criterion not met
//
Mutation Label: M15C
Answer Label: Criterion not met
//
Mutation Label: C1P
Answer Label: Criterion not met
//
Mutation Label: M17H
Answer Label: Criterion met
//
Mutation Label: C1T
Answer Label: Criterion met
//
Mutation Label: C1K
Answer Label: Criterion not met
//
Mutation Label: T13P
Answer Label: Criterion not met
//
Mutation Label: A18W
Answer Label: Criterion met
//
Mutation Label: M17T
Answer Label: Criterion met
//
Mutation Label: C2W
Answer Label: Criterion not met
//
Mutation Label: M17Q
Answer Label: Criterion met
//
Mutation Label: A5D
Answer Label: Criterion not met
//
Mutation Label: A18V
Answer Label: Criterion met
//
Mutation Label: I7M
Answer Label: Criterion not met
//
Mutation Label: I21G
Answer Label: Criterion met
//
Mutation Label: C8L
Answer Label: Criterion met
//
Mutation Label: I21K
Answer Label: Criterion met
//
Mutation Label: R24M
Answer Label: Criterion met
//
Mutation Label: I22W
Answer Label: Criterion not met
//
Mutation Label: I7C
Answer Label: Criterion not met
//
Mutation Label: T16A
Answer Label: Criterion met
//
Mutation Label: I19P
Answer Label: Criterion met
